Test name: Dog pharmacokinetic studies, deep intramuscular administration
Type: in vivo, Beagle dogs
Applied conditions: Beagle, dog, plasma, im, 48 mg/kg, IM 48 mg/kg, Cottonseed + 1% Benzyl Alcohol; read-out: Half-life t1/2 (hour) prodrug (converted)
Readout label: half-life (h)
Write the answer as a number in h, unit excluded.

Lookup: Name the recorded half-life for C=C1CC[C@@]2(O)C3Cc4ccc(OCOC(=O)CCCCCCCCCCCCC)c5c4[C@@]2(CCN3CC2CC2)[C@H]1O5 .
Found: 171

====

Test name: Solubility determination in oil (Table 10)
Applied conditions: 40 °C, oil or lipid, thermodynamic from solid, Approximate Solubility in Excipient: Sesame oil, Heating Temp. 60 °C, Obs. Temp. 40 °C
solubility values for the molecules below.

Reference set (3 entries):
>>> reported_value("C=C1CC[C@@]2(O)C3Cc4ccc(OC(=O)CCCCCCCCCCCCCCC)c5c4[C@@]2(CCN3CC2CC2)[C@H]1O5 [Compound 56]")
"25 to 50 mg/mL"
>>> reported_value("C=C1CC[C@@]2(O)C3Cc4ccc(OC(=O)CCCCCCCCCCCCCCCCCCCCC)c5c4[C@@]2(CCN3CC2CC2)[C@H]1O5 [Compound 14]")
"< 25 mg/mL"
>>> reported_value("C=C1CC[C@@]2(O)C3Cc4ccc(OC(=O)CCCCCCCCCCCCCCCCC)c5c4[C@@]2(CCN3CC2CC2)[C@H]1O5 [Compound 12]")
"> 411 mg/mL"

Here's the next entry for you.
Lookup: Name the recorded solubility for C=C1CC[C@@]2(O)C3Cc4ccc(OC(=O)CCCCCCC/C=C/CCCCCCCC)c5c4[C@@]2(CCN3CC2CC2)[C@H]1O5 [Compound 15] .
Found: > 404 mg/mL
